- Test system: Zika virus NS2B-NS3 protease (linked construct)
- protocol_summary: Primary screen NINDS Rhodamine qHTS for Zika virus inhibitors (AID 1347160); also: nearly all actives have a fitted effect of over 55% in size
- condition_info: purified NS2B-NS3 protease, Rhodamine110 substrate fluorescence; series mostly up to 57.1 µM
Inconclusive results are not listed. Active and inactive are the calls of the source. Calls follow the shape of the dose curve; as a rule, active = well fitted inhibition curve with a large enough effect; inconclusive = small, poorly fitted or top-dose-only effect; inactive = no such curve, though single readings can be large or run the other way.
measured_endpoint: outcome

[
  {
    "molecule": "CCC(Nc1ncnc2nc[nH]c12)c1nc2cccc(F)c2c(=O)n1-c1ccccc1 (configuration not stated)",
    "outcome": "inactive"
  },
  {
    "molecule": "CO[C@H]1C[C@@H]2CC[C@@H](C)[C@@](O)(O2)C(=O)C(=O)N2CCCC[C@H]2C(=O)O[C@H]([C@H](C)C[C@@H]2CC[C@@H](OP(C)(C)=O)[C@H](OC)C2)CC(=O)[C@H](C)/C=C(\\C)[C@@H](O)[C@@H](OC)C(=O)[C@H](C)C[C@H](C)/C=C/C=C/C=C/1C",
    "outcome": "inactive"
  },
  {
    "molecule": "COC(=O)C1=CO[C@@H](O)C2C(CO)=CCC12 (some centres not stated)",
    "outcome": "inactive"
  },
  {
    "molecule": "COC(=O)c1c(C)cc(OC(=O)c2c(C)cc(OC)cc2OC)cc1O[C@@H]1O[C@H](CO)[C@@H](O)[C@H](O)[C@H]1O",
    "outcome": "inactive"
  },
  {
    "molecule": "CC1=CC(=O)C2(OC3OC(C)C(O)C(OC(=O)/C=C/c4ccccc4)C3O)C=COC(OC3OC(CO)C(O)C(O)C3O)C12 (configuration not stated)",
    "outcome": "inactive"
  },
  {
    "molecule": "CC(C)(C)c1cc(Br)cc([C@H](CC(=O)O)NC(=O)CNC(=O)c2cc(O)cc(NC3=NCC(O)CN3)c2)c1 (some centres not stated)",
    "outcome": "inactive"
  }
]

Moving on to the next molecule.
Task item: Entry CC(C)[C@H]1CC[C@@]2(O)COC(=O)[C@H]2[C@@H]1/C=C(\CO)C(=O)O : reported outcome = ?
Reply: inactive

====

- protocol_summary: Primary qHTS for inhibitors of nuclear receptor binding SET domain protein 2 (NSD2) in an isogenic RCH-ACV NSD2 p.E1099K mutant (9B) (AID 1645876); also: nearly all actives have a fitted effect of over 70% in size; also: potency is read from the fitted curve at half-maximal effect
- condition_info: RCH-ACV (leukaemia line) NSD2 E1099K (9B) viability, CellTiter-Glo, 72 h; series mostly up to 44.9 µM
Inconclusive results are not listed. Active and inactive are the calls of the source. Calls come from the whole dose curve; as a rule, active = well fitted inhibition curve with a large enough effect; inconclusive = small, poorly fitted or top-dose-only effect; inactive = flat fitted curve, though single readings scatter.
measured_endpoint: Potency

Examples with answers:
[
  {
    "compound": "CC(C)=CCC/C(C)=C/CO[C@@H]1O[C@H](CO)[C@@H](OC(=O)/C=C/c2ccc(O)cc2)[C@H](O[C@@H]2O[C@@H](C)[C@H](O)[C@@H](O)[C@H]2O)[C@H]1O",
    "Potency": "inactive"
  },
  {
    "compound": "COc1c2c(c(C)c3c1C(=O)OC3)OC1(C)CC(O)C34OC(OC)(OC3(C)C)C(O)CC4(C)C1C2 (stereo unspecified)",
    "Potency": "inactive"
  },
  {
    "compound": "C=C(C)C(=O)O[C@H]1CC2=CC(C/C(C)=C\\[C@H]3OC(=O)C(=C)[C@H]13)OC2=O (stereo partly specified)",
    "Potency": "5.05 µM (active)"
  },
  {
    "compound": "Cc1cc(O)c(-c2ccc([C@@H](C)CN(C)C)cc2)c2c1[nH]c(=O)c1sccc12",
    "Potency": "0.0742 µM (active)"
  },
  {
    "compound": "CC(C)(O)CC(CO)NC(=O)CC(O)CC(=O)Cc1ccccc1 (stereo unspecified)",
    "Potency": "inactive"
  }
]

Task item: Would you mind telling me what Potency value was observed for CC1(C)C=CN2C(=O)C3=CCCN3C(=O)[C@@H]2C[C@@]12Nc1ccccc1C2=O ?
Reply: inactive
